All figures here come from ChEMBL document CHEMBL4325847.

- System: L02
- procedure_summary: Cytotoxicity against human LO2 cells by MTT assay
- Assay type: cell-based
assay_metric: CC50 (µM)
Numbers only, in µM.

Go through the list and state CC50 for each entry.
1. Oc1ccccc1C1CC(c2ccc(F)cc2)=NN1c1nc(-c2ccc(C(F)(F)F)cc2)cs1 (centres undefined)
2. Oc1ccccc1C1CC(c2ccccc2)=NN1c1nc(-c2ccccc2)cs1 (centres undefined)
3. Oc1ccccc1C1CC(c2ccc(F)cc2)=NN1c1nc(-c2ccc(Br)cc2)cs1 (centres undefined)

Reply:
66.1
88.3
48.2

Count: 5. Required value per item: CC50.
1. Oc1ccccc1C1CC(c2ccccc2)=NN1c1nc(-c2ccc(C(F)(F)F)cc2)cs1 (centres undefined)
2. Cc1ccc(-c2cc(C(F)(F)F)nn2-c2ccc(S(N)(=O)=O)cc2)cc1
3. COc1ccc(-c2csc(N3N=C(c4ccccc4)CC3c3ccccc3O)n2)cc1 (centres undefined)
4. Oc1ccccc1C1CC(c2ccccc2)=NN1c1nc(-c2cccc(Br)c2)cs1 (centres undefined)
5. Oc1ccccc1C1CC(c2ccccc2)=NN1c1nc(-c2ccc(Br)cc2)cs1 (centres undefined)

Reply:
1. 42.8
2. 78.2
3. 72.4
4. 42.3
5. 65.2

List the reported CC50 of each molecule below.
1. COc1cccc(-c2csc(N3N=C(c4ccc(F)cc4)CC3c3ccccc3O)n2)c1 (centres undefined)
2. COc1cccc(-c2csc(N3N=C(c4ccccc4)CC3c3ccccc3O)n2)c1 (centres undefined)
3. COc1ccc(C2=NN(c3nc(-c4cccc(OC)c4)cs3)C(c3ccccc3O)C2)cc1 (centres undefined)
4. Oc1ccccc1C1CC(c2ccc(F)cc2)=NN1c1nc(-c2cccc(Br)c2)cs1 (centres undefined)
5. COc1ccc(C2=NN(c3nc(-c4ccc(OC)cc4)cs3)C(c3ccccc3O)C2)cc1 (centres undefined)
6. Oc1ccccc1C1CC(c2ccc(F)cc2)=NN1c1nc(-c2ccccc2)cs1 (centres undefined)
7. COc1ccc(-c2csc(N3N=C(c4ccc(F)cc4)CC3c3ccccc3O)n2)cc1 (centres undefined)

Reply:
1: 43.8; 2: 57.9; 3: 56.2; 4: 59.4; 5: 49.7; 6: 85.6; 7: 85.6

---

- target_or_test_system: Neutrophil collagenase (Homo sapiens, UniProt P22894)
- Sequence (P22894 whole entry): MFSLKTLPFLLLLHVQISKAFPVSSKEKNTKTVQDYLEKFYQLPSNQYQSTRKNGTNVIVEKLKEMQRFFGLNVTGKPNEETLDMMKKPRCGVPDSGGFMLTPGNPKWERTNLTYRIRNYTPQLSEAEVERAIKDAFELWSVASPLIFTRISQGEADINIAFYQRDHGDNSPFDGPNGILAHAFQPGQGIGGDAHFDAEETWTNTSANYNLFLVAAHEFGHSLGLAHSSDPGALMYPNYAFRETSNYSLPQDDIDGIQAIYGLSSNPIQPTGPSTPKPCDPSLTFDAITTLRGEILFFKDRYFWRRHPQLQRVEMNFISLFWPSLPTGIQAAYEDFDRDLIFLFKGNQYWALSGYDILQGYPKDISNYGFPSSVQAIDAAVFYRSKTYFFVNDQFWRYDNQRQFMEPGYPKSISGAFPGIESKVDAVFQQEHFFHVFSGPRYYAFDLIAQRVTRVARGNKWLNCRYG
- procedure_summary: Inhibition of recombinant human MMP-8 using Mca-PLGL-Dpa-AR-NH2 as substrate preincubated for 10 mins followed by substrate addition and measured for 5 mins by fluorescence assay
assay_metric: IC50

1) Oc1ccccc1C1CC(c2ccc(F)cc2)=NN1c1nc(-c2cccc(Br)c2)cs1 (centres undefined) ... 60.1 µM
2) Oc1ccccc1C1CC(c2ccc(F)cc2)=NN1c1nc(-c2ccc(Br)cc2)cs1 (centres undefined) ... 48.8 µM
3) COc1ccc(-c2csc(N3N=C(c4ccccc4)CC3c3ccccc3O)n2)cc1 (centres undefined) ... 48.9 µM

Working through the 2 compounds below one at a time, give IC50 for each.
1. COc1ccc(C2=NN(c3nc(-c4cccc(OC)c4)cs3)C(c3ccccc3O)C2)cc1 (centres undefined)
2. Oc1ccccc1C1CC(c2ccccc2)=NN1c1nc(-c2ccccc2)cs1 (centres undefined)

Reply:
25.6 µM
62.5 µM

Return reported IC50 values for all items listed beneath this line.
1. Oc1ccccc1C1CC(c2ccccc2)=NN1c1nc(-c2cccc(Br)c2)cs1 (centres undefined)
2. COc1ccc(C2=NN(c3nc(-c4ccc(Br)cc4)cs3)C(c3ccccc3O)C2)cc1 (centres undefined)

Reply:
86.5 µM
36.8 µM

Look up IC50 for the entries below, preserving their order.
1. COc1ccc(C2=NN(c3nc(-c4ccc(C(F)(F)F)cc4)cs3)C(c3ccccc3O)C2)cc1 (centres undefined)
2. COc1cccc(-c2csc(N3N=C(c4ccccc4)CC3c3ccccc3O)n2)c1 (centres undefined)
3. COc1ccc(C2=NN(c3nc(-c4ccccc4)cs3)C(c3ccccc3O)C2)cc1 (centres undefined)
4. Oc1ccccc1C1CC(c2ccccc2)=NN1c1nc(-c2ccc(Br)cc2)cs1 (centres undefined)

Reply:
1: > 100 µM; 2: 35.8 µM; 3: 30.5 µM; 4: 75.6 µM

// each listed compound needs a value for IC50
1. Oc1ccccc1C1CC(c2ccccc2)=NN1c1nc(-c2ccc(C(F)(F)F)cc2)cs1 (centres undefined)
2. C[C@@]1(O)c2cccc(O)c2C(=O)C2=C(O)[C@]3(O)C(=O)C(C(N)=O)=C(O)C[C@@H]3C[C@@H]21
3. Oc1ccccc1C1CC(c2ccc(F)cc2)=NN1c1nc(-c2ccccc2)cs1 (centres undefined)

Reply:
1: > 100 µM; 2: 21.9 µM; 3: 39.7 µM
